- system-name: Hematopoietic prostaglandin D synthase (Mus musculus, UniProt Q9JHF7)
- Sequence (Q9JHF7 whole entry): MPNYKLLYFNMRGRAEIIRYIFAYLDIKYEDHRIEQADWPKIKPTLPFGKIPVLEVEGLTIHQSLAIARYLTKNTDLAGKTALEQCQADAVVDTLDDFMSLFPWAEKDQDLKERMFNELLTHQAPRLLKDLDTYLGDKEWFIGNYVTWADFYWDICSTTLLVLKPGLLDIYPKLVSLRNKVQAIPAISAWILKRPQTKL
- procedure-details: Inhibition of H-PGDH in mouse BMDM cells assessed as inhibition of LPS-stimulated PGD2 production after 24 hrs by EIA
quantity-kind: EC50 (nM)

(1) NC(=O)C(Cc1ccccc1)NC(=O)c1ccc(-c2cccs2)nc1 (configuration not stated)
(2) c1ccc(-c2ncc(-c3cc[nH]n3)s2)cc1
Enquiry: API: POST /compare with 1 and 2 ; response names the item with higher EC50. API: response body contains the label of the selected item.
Return: 1

Data provenance is ChEMBL document CHEMBL1212916.
